Test system: NCI-H460 lung
EXPERIMENTAL PROTOCOL: NCI-60 one-dose screen, 48 h (100 = growth as untreated, 0 = no growth, -100 = all killed)
PROTOCOL CONDITIONS: 10 µM unless noted
The panel holds about 83,000 compounds, 20% with a hit somewhere; the sample as a whole holds those more often.
Grouping rule (growth): 0 = under 20%, 1 = from 20% up to 70%, 2 = 70% and over

- COMPOUND: "Cc1nc(N)sc1-c1csc(Nc2ccc(C(F)(F)F)cc2)n1"
  CLASS ASSIGNMENT: 1
- COMPOUND: "CC(O)c1cccc(/C(N)=N/C(N)=N/c2nc3ccccc3s2)c1 (stereo not given)"
  CLASS ASSIGNMENT: 2
- COMPOUND: "O=C(CCCCCCNC(=O)C(O)(O)C(F)(F)F)Nc1nc2ccccc2s1"
  CLASS ASSIGNMENT: 0
- COMPOUND: "CC[C@]12CC(C(=O)OC)=C3Nc4ccccc4[C@@]34CCN(C14)[C@@H]1c3cc4c(cc3O[C@@H]1[C@H]2O)NC1=C(C(=O)OC)C[C@@]2(CC)C3N(CC[C@@]143)C[C@H]1O[C@H]12 (stereo not given in full)"
  CLASS ASSIGNMENT: 0
- COMPOUND: "CN1CCN(Cc2ccc(NC(=O)c3cncc(C#Cc4cnc5ccc(N)nn45)c3)cc2C(F)(F)F)CC1"
  CLASS ASSIGNMENT: 0
- COMPOUND: "COc1cc(C(=O)c2cc(C(C)=O)c3cccc(C)n23)cc(OC)c1OC"
  CLASS ASSIGNMENT: 0

Asked: Dear colleague, I would appreciate it if you could identify the bin for "N#Cc1nc(-c2ccc(Cl)cc2)oc1N1CCC(S(=O)(=O)N2CCOCC2)CC1" and reply at your convenience.
Given back: 2

Asked: Dear colleague, I would appreciate it if you could identify the bin for "C[C@H]1OCC2(CCN(c3cnc(C(=O)Nc4cc(F)cc5cccnc45)cn3)CC2)[C@H]1N" and reply at your convenience.
Given back: 2

Asked: Dear colleague, I would appreciate it if you could identify the bin for "O=C(/C=C/c1csc(Br)n1)NO" and reply at your convenience.
Given back: 1

---

Each entry below carries its recorded growth.
Test system: EKVX NSCLC
EXPERIMENTAL PROTOCOL: NCI-60 one-dose screen, 48 h (100 = growth as untreated, 0 = no growth, -100 = all killed)
PROTOCOL CONDITIONS: 10 µM unless noted
The panel holds about 83,000 compounds, 20% with a hit somewhere; the sample as a whole holds those more often.
Note: unit % is implicit; provide only the numeric part.

Here's what some known entries look like.
- COMPOUND: "CC(Nc1c(C#N)cnc2ccc(-c3cncc(-c4n[nH]c(=O)o4)c3)cc12)c1ccccc1 (centres undefined)"
  growth [%]: -12
- COMPOUND: "C/C(=C(/C)C1CC1CCNC1CCC(NC(=O)OC(C)(C)C)CC1)c1ccccc1 (centres undefined)"
  growth [%]: 73.7
- COMPOUND: "O=C(NCCNc1cc(-c2cn(-c3ccccc3)nc2-c2cccc(O)c2)ccn1)Nc1cc(C(F)(F)F)cc(C(F)(F)F)c1"
  growth [%]: 90.6
- COMPOUND: "NC(=S)n1c(=O)n(-c2cccc(C(F)(F)F)c2)c(=O)c2cc(-c3ccc(F)cc3F)ccc21"
  growth [%]: 5.19
- COMPOUND: "COc1ccc(N2CCN(C3=C(Cl)C(=O)c4ncccc4C3=O)CC2)cc1"
  growth [%]: 99.9
- COMPOUND: "COc1cc2cc(Oc3ccc(NC(=O)c4cc(C(F)(F)F)cc(C(F)(F)F)c4)cc3)c(C)nc2cc1OCCN1CCOCC1"
  growth [%]: 57.7

Asked: Report its growth with EKVX NSCLC as the test system: "COc1cc(/C=N\NC(=O)c2ccc3nc(-c4ccc(Br)cc4)[nH]c3c2)cc(OC)c1OC"
Given back: 78.2

Asked: Report its growth with EKVX NSCLC as the test system: C=CCSC1=NC2C(N(CC)C(=O)N2CC)N1/N=C/C=C/c1ccccc1OC (centres undefined)
Given back: 83.7

Asked: Report its growth with EKVX NSCLC as the test system: "N#Cc1c(-c2cccs2)cc(-c2cnccn2)nc1SCC(=O)N/N=C/c1ccccc1"
Given back: 56.2

---

Test system: A498 renal
EXPERIMENTAL PROTOCOL: NCI-60 one-dose screen, 48 h (100 = growth as untreated, 0 = no growth, -100 = all killed)
PROTOCOL CONDITIONS: 10 µM unless noted
Compounds without any hit were thinned out: in the full panel of roughly 83,000, 20% have a hit.
Lab note: compare growth against 70%. Equal or greater, write true (1). Smaller, write false (0).

These solved cases illustrate the format of a correct answer.
- CHEMICAL SMILES: "Cc1cccc(N2CCN(C3=C(Cl)C(=O)c4ncccc4C3=O)CC2)c1"
  SYSTEM UNDER TEST: "A498 renal"
  CLASS ASSIGNMENT: "true (1)"
- CHEMICAL SMILES: "N#CC1=C2NCCCNc3oc(nc3C#N)Cc3ccccc3CC(=N1)O2"
  SYSTEM UNDER TEST: "A498 renal"
  CLASS ASSIGNMENT: "true (1)"
- CHEMICAL SMILES: "Fc1cccc(Cl)c1/C=N/Nc1nc(N/N=C/c2c(F)cccc2Cl)nc(N2CCCCC2)n1"
  SYSTEM UNDER TEST: "A498 renal"
  CLASS ASSIGNMENT: "false (0)"
- CHEMICAL SMILES: "Cc1ccc(-c2nc(SCC(=O)c3ccccc3)nc(Nc3ccc(S(N)(=O)=O)cc3)c2C#N)cc1"
  SYSTEM UNDER TEST: "A498 renal"
  CLASS ASSIGNMENT: "true (1)"
- CHEMICAL SMILES: "CN1CCN(Cc2ccc(NC(=O)c3cncc(C#Cc4cnc5ccc(OCC(F)F)nn45)c3)cc2C(F)(F)F)CC1"
  SYSTEM UNDER TEST: "A498 renal"
  CLASS ASSIGNMENT: "false (0)"
- CHEMICAL SMILES: "O=C1Nc2ccccc2/C1=C/c1ccc(OCC(=O)c2ccccc2)cc1"
  SYSTEM UNDER TEST: "A498 renal"
  CLASS ASSIGNMENT: "true (1)"
- CHEMICAL SMILES: "NC(=O)n1c(=O)n(-c2cccc(C(F)(F)F)c2)c(=O)c2cc(-c3ccc(F)cc3F)ccc21"
  SYSTEM UNDER TEST: "A498 renal"
  CLASS ASSIGNMENT: "false (0)"
- CHEMICAL SMILES: "CN1CCN(c2ccc(Nc3nc(NCCCNS(=O)(=O)c4ccc(F)cc4)c4sccc4n3)cc2)CC1"
  SYSTEM UNDER TEST: "A498 renal"
  CLASS ASSIGNMENT: "true (1)"

Kindly review the next compound as well.
Asked: Reported growth at or above 70%? "CN1CCN(c2ccc(Nc3nc(NCCCNS(=O)(=O)c4cccc(F)c4)c4sccc4n3)cc2)CC1"
Given back: false (0)

---

Tested on: 786-0 renal
EXPERIMENTAL PROTOCOL: NCI-60 one-dose screen, 48 h (100 = growth as untreated, 0 = no growth, -100 = all killed)
PROTOCOL CONDITIONS: 10 µM unless noted
This is part of a sample that, as a whole, favours compounds with a hit. Of some 83,000 tested, about 20% had one in any assay.
Each entry below carries its recorded growth.
Note: unit % is implicit; provide only the numeric part.

- COMPOUND: "N#Cc1nc(-c2ccccc2)oc1N1CCC(C2(C(F)(F)F)N=N2)CC1"
  MEASURED METRIC: "growth"
  EXPERIMENTAL VALUE: 101
- COMPOUND: "C#CCOc1ccccc1C(OC(=O)c1ccccc1)C(=O)NC(C)(C)C(C)(C)C (stereo unspecified)"
  MEASURED METRIC: "growth"
  EXPERIMENTAL VALUE: 84.7
- COMPOUND: "O=C1Nc2ccc(F)cc2/C1=C\\C(=O)c1ccc(NS(=O)(=O)c2ccccc2)cc1"
  MEASURED METRIC: "growth"
  EXPERIMENTAL VALUE: 98.6
- COMPOUND: "C/C(=N/N)c1nnn(-c2ccc(Br)cc2)c1C"
  MEASURED METRIC: "growth"
  EXPERIMENTAL VALUE: 103
- COMPOUND: "Cc1[nH]c(C(=O)Nc2ccc(C(N)=O)cc2N2CCOC(C)C2)c(Cl)c1Cl (stereo unspecified)"
  MEASURED METRIC: "growth"
  EXPERIMENTAL VALUE: 92.9

Asked: Indicate its recorded growth; the compound in question is "C#CCOc1ccc(/C=N/Nc2nc(-c3ccc(OC)cc3)cs2)cc1"
Given back: 89.2
